Test: soluble on expression in E. coli; label from the status in PepcDB or PDB records
property.label: soluble on expression in E. coli

MSLKGGYAVVDFKVPNERDNASTTKLEVNFPTDHPLASVMPQPVPGWKAEVTKAKPAKPLESHGKQITEVVTKVTWTADGKGVEPGYFQKFPVSIGALPEDADQLVFKAIQTYSNKEVVRWIEVPQEGQEEPETPAPVLKLSAAEDDAHGASEGHHHHHH :: soluble
GNSPQEEVELKKLKHLEKSVEKIADQLEELNKELTGIQQGFLPKDLQAEALCKLDRRVKATIEQFMKILEEIDTLILPENFKDSRLKRKGLVKKVQAFLAECDTVEQNICQETE :: soluble
SDTGVIEGGLNVTLTIRLLMHGKEVGSIIGKKGESVKKMREESGARINISEGNCPERIITLAGPTNAIFKAFAMIIDKLEEDISSSMTNSTAASRPPVTLRLVVPASQCGSLIGKGGCKIKEIRESTGAQVQVAGDMLPNSTERAITIAGIPQSIIECVKQICVVMLETLSQSPPKGVTIPYRPKPSSSPVIFAGGQDRYSTGSDSASFPHTTPSMCLNPDLEGPPLEAYTIQGQYAIPQPDLTKLHQLAMQQSHFPMTHGNTGFSGIESSSPEVKGYWAGLDASAQTTSHELTIPNDLIGCIIGRQGAKINEIRQMSGAQIKIANPVEGSTDRQVTITGSAASISLAQYLINVRLSSETGGMGSS :: soluble

====

Assay: soluble on expression in E. coli; label from the status in PepcDB or PDB records
property.label: soluble on expression in E. coli

MSWEGFKKAINRAGHSVIIKNVDKTIDKEYDMEERRYKVLQRAGEALQKEAKGFLDSLRAVTASQTTIAEVISNLYDDSKYVAGGGYNVGNYYLQCVQDFDSETVKQLDGPLRETVLDPITKFSTYFKEIEEAIKKRDHKKQDFDAAKAKVRRLVDKPAKDASKLPRAEKELSLAKDIFENLNNQLKTELPQLVSLRVPYFDPSFEALIKIQLRFCTDGYTRLAQIQQYLDQQSRDDYANGLLDTKIEELLGQMTSLDICALGIK :: not soluble
MIGILIPVHNEEQLLDLCLETIKQAAAHPALKGEQVEVLVVLDSCTDRSAEIARAHGVMILEVTARNVGQARAEGAAFLLDRGARWLACTDGDSSVASDWLAEQLALDADAVCGTVTLGDWNNDISAPARAAYLKHYQQRDGHRHIHGANLGVSSIAYISAGGFPSLTCHEDVHLVRQLELIGARIAWSCRPRVTTSTRLNSKARGGFGDYLSSLNALEHHHHHH :: not soluble

====

Assay: soluble on expression in E. coli; label from the status in PepcDB or PDB records
property.label: soluble on expression in E. coli

MKDVSKNQEENISDTALTNELIHLLGHSRHDWMNKLQLIKGNLSLQKYDRVFEMIEEMVIDAKHESKLSNLKTPHLAFDFLTFNWKTHYMTLEYEVLGEIKDLSAYDQKLAKLMRKLFHLFDQAVSRESENHLTVSLQTDHPDRQLILYLDFHGAFADPSAFDDIRQNGYEDVDIMRFEITSHECLIEIGLD :: soluble
MSQYVVCALYKFVELNNYQELREPLLALMEKHHIRGTLLLAGEGINGTVASDRAGIDTLLEWLNTEPRLTGTVYKESYSETQPFNRTKVKLKKEIVTLGVEGIDPRHVVGTYVKPQDWNDLIADPEVFVVDTRNDYEIEIGTFKGAVNPNTETFREFPDYVKENMDPAKHKKVAMFCTGGIRCEKSTAYMKEQGFEEVYHLEGGILKYLEEVPQEESMWEGDCYVFDGRVAVNHQLEKADYDLCNACRLPITDEDKQSELFEQGVSCPKCHGKHSEEQVERFREREKQVSLANQRGEQHVGGESAKQRAQRREAKLAKKAAQRKQALEHHHHHH :: soluble
MQRLFRQKMIINSLGTSPTSVDTLVELTGASPATIRRDLTDLEGHGQLRKVHGGAVAVNLRGTPMPYSLRSAENAESKTAIAQLVSRLVTDDMSVIIDNGSTMVAVAQALQERPITALCLSLRAALPLGEGGVATVSTPDGTLMPESLRYAAASCLRALGEFRADVAIVGTCSASPAMGLTVTTHQDAQVKRAILASSARVVLAATGDKLSRTSSFRFGDIEDIDDLVTTRDAPQVTLDAFRVAGSRVYVADLEHHHHHH :: soluble
MDGSMGEGGGQILRTAVALAAVLGRPLRIVNIRAKRRPPGLRPQHLTAVRAVAAISGGRLRGAEVGSTSLEFTPGRVRGGRYRFDVGTAGSVALIIQALAPLLAYSDSPVEVELTGGTDVPMAPTIDYMREVFASILAMLGYEIEIRVLRRGHYPRGGGRVVVRVPDPPGGFRARSFVERGPLKGVYVRSHAVKLPGSIAERQARSAASLVRERLGVDPIVEIEAYKPHRDPHLGPGTGVLVWAVFGETVMGGDSIGKKGKPAEVVGREAAESLLEDMATGAALDRHMSDMAPVYLALAGGVSTVFGARLTGHASTILELLRIMVDGFEYRILEGGLERPFKAELRGAGVSPR :: soluble
GMDRTLTHQPQEYAVSVSVGEVKLKGNLVIPNGATGIVLFAHGSGSSRYSPRNRYVAEVLQQAGLATLLIDLLTQEEEEIDLRTRHLRFDIGLLASRLVGATDWLTHNPDTQHLKVGYFGASTGGGAALVAAAERPETVQAVVSRGGRPDLAPSALPHVKAPTLLIVGGYDLPVIAMNEDALEQLQTSKRLVIIPRASHLFEEPGALTAVAQLASEWFMHYLR :: soluble

Exercise: Could you share which soluble on expression in E. coli value was measured for MAKTYGLIGLYSRIVNKIEDSKKYLSLAIEMNIQSGNHKSLFVNELRLAHTYQWETNYHKSNKLFKKLKEQSESDTEHSNYLDSVYQHYGKNLFDQSEYQLALKYVKKALRIRVEKGNKELIDSTEYAINICNEKIKQIKEMAGDPLEHHHHHH ?
Solution: not soluble

Exercise: Requested field: soluble on expression in E. coli. Item: LSNGQGSRVLHVVQTLYPFSSVTEEELNFEKGETMEVIEKPENDPEWWKCKNARGQVGLVPKNYVVVLSDGPALHPAH
Solution: soluble

Exercise: GET /values?readout=soluble on expression in E. coli&item= MANLKRYNDGLFKLDLWIRRLLTIGESNELYTALCDGVCDIVGAGTAVFTTIDMQAGTLTYMAASGGWNAMVKGLAVPMKSGNLCASVAACGTPLRIDQISSRTDSCELLQVMDMDAAVLVPVLEEGRVTACLSAFRVGNPFDQIDEQLLQQYAHTASMVLRTVRLMVDLR
Solution: not soluble

Exercise: Give its soluble on expression in E. coli value. Item: MLISKVIKKQFAQETIENVHIAKGTAMFQGVRLTVRCFVIDGVLIDTGAKSMENEFTSFFQQQDIDQVVITHFHEDHTGCAAFLQRKMGLPIYMNELMIHYCQQKADYPLYRKVFWGKRDPFTAKPIGATFSSRSATWDVIPTPGHSIDHVAFLNRETGQLFSGDLYCQEKTKVILREENIPAIITSLQHVLTYDFGDVFCAHAGYLPNGREALQRKLDYLLELQGTIIDLYEKGTPPKQIQALLFPKKYPIVFFSGGEWDSLHIIRSVIQEYETKQAG
Solution: not soluble

Exercise: # soluble on expression in E. coli lookup, item MKNFVRTTLLAATLAGVSFGAFATAVPNPPLPAQDPIVQHLKLTNDQITRIKKLHQQLETDVSQISMKGIKDGALIEVIKSGKWDDAAVKQQLAAFSNIEQQARYYRVKYYFDLSKVLTPEQRQQVQQDLAQALE
Solution: not soluble

Exercise: Find the recorded soluble on expression in E. coli belonging to MGAEGRLYWDEGEGEGPYRLDRFRLLPAEGGFRLLWQGKGELPWPWARVRLRLFGKRLLRAHVEGEAHAAEEGGVLLPPFREALLEVEGLEHHHHHH and report it.
Solution: not soluble

Exercise: I have this sequence here, MKKHHHHHHEDFHGIDIVINHRLKTSLEEGKVLEKTVPDLNNCKENYEFLIKWTDESHLHNTWETYESIGQVRGLKRLDNYCKQFIIEDQQVRLDPYVTAEDIEIMDMERERRLDEFEEFHVPERIIDSQRASLEDGTSQLQYLVKWRRLNYDEATWENATDIVKLAPEQVKHFQKK , and I need its recorded soluble on expression in E. coli.
Solution: soluble

Exercise: Could you share which soluble on expression in E. coli value was measured for GPGSMLRRQCVPLRVVAAGLRLNSSSSGPSKTNDGGIPNATGMDNAPGLYAEKPSSTYCEEKYPNKVEEVGSLKPPTYDVPHGRSDNIKTPEFNTSLGKFDQAPYFTGGPPAMRYHGYKRDPAVEGVDYRDVLPKTPIEDHHPHMEFLSVTGRREGSTFLLANAGVNWELKAAAMSLYRTILKSLPMIKHYYWLLVPLPAMKDKIRLRFLQNQHTKDPDAIRHLLHNGWMEFQESIMFRRPR ?
Solution: not soluble

Exercise: Would you kindly share the measured soluble on expression in E. coli for MFGLPMYNVWRAEQAGKAEFSKAEQNRRIKIEEAKANLEAEKLNAKAEIERAKGAAEAIRIENNSLTPTYIQYLWVRQQGSLNDKTVIYIPTEANLPLLEAGRTAGGLKRAECPTE ?
Solution: not soluble
